Where do these numbers come from? They come from patent EP4039094A1.

# Target Under Test: Stp1/Stp4/Stp3 subcomplex (Mycosarcoma maydis, UniProt A0A0D1C5E3+A0A0D1CU07+A0A0D1EAN2)
# Sequence (A0A0D1CU07 29-515): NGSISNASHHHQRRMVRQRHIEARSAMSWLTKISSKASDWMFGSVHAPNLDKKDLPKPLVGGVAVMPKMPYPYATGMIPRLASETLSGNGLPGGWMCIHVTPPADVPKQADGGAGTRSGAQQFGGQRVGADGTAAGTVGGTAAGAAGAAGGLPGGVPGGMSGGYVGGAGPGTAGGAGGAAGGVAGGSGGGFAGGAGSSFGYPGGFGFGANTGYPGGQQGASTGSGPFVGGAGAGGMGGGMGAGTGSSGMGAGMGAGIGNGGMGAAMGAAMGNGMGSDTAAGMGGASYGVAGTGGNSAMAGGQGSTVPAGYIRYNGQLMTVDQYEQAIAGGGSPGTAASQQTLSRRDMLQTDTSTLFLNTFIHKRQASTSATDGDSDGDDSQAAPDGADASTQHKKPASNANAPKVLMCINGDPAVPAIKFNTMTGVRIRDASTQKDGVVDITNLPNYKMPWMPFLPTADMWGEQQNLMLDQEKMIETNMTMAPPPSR
# Sequence (A0A0D1C5E3 24-129): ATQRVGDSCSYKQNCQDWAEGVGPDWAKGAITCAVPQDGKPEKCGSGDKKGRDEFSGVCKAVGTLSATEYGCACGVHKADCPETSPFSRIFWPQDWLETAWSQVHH
# Sequence (A0A0D1EAN2 25-327): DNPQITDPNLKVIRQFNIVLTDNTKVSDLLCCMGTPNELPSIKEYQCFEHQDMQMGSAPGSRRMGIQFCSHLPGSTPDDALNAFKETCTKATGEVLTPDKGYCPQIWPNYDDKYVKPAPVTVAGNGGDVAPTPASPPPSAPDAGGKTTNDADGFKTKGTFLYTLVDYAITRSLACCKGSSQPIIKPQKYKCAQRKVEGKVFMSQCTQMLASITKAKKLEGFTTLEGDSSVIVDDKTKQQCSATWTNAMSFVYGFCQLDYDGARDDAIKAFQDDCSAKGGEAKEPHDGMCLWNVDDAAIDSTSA
# Assay Comment: Alamar Blue viability assay in S. cerevisiae 2-hybrid strain NL73 (viability depends on Stp complex formation)
# Type: cell-based, U. maydis
# Condition Notes: inhibitory activity on NL73 viability, Table 6; read-out: IC50
For each of the compounds below, state its IC50.

**Q:** Provide measured IC50 value, entry: CCCn1c2c(c(SCc3ccccc3F)nc1=O)CCC2
**A:** 6.4 µM

**Q:** Provide measured IC50 value, entry: CCn1c2c(c(SCc3cccc(C)c3)nc1=O)CCC2
**A:** 6.2 µM

**Q:** Provide measured IC50 value, entry: Cc1ccc(CSc2nc(=O)n(C3CCCC3)c3c2CCC3)cc1
**A:** 0.67 µM
